Origin of measurements: patent US20220112288A1

# Test Target: T1, human CD4 on cells (SKW3 cells; human PBMCs) (human, UniProt P01730 26-458)
# T1 construct: whole, on cells; SKW3 CD4 knockout cells served as the negative cell line; also called hCD4
# Assay Method Text: FACS binning on SKW3 cells pre-incubated with supernatant; competitor RPA-T4-PE-Dazzle 594, its signal read; background 783, max binding 15000
Attribute: SKW3 FACS Binning RPA-T4-PE-Dazzle 594
Answer with the value's number alone.

>>> reported_result("75110_01J17A (antibody, IgG1, V domains shown, Tested as non-clonal AlivaMab Mouse Kappa hybridoma supernatant: human variable domains and human kappa, mouse Fc) VH: EVQLVESGGGLVQPGGSLRLSCAASGFTFSSYDMHWVRQGTGKGLEWVSTIGTADDTYYPGSVKGRFTISRENAENSLYLQMNSLRAGDTAVYYCARGGDYYYGMDVWGQGTTVTVSS VL: EIVLAQSPGTLSLSPGERATLSCRASQSVYISYLAWYQQKPGQAPRLLIYGASSRATGIPDRFSGSGSGTDFTLTITRLEPEDFAVYYCQQFGSSPFTFGPGTKVDFK")
1950
>>> reported_result("75110_05K11A (antibody, IgG1, V domains shown, Tested as non-clonal AlivaMab Mouse Kappa hybridoma supernatant: human variable domains and human kappa, mouse Fc) VH: EVQLVESGGGLVQPGGSLRLSCAASGFTFSSYDMHWVRQPTGKGLEWVSTIGTAGDTYYPASVKGRFTISRENAKNSLYLQMNSLRAGDTAVYYCARGGFYYYGMDVWGQGTTVTVSS VL: EIVLTQSPGTLSLSPGERVTLSCRASQSVSNTYLAWYQQKPGQAPRLLIYGASSRATGIPDRFSGSGSGTDFTLTISRLEPEDFVVYYCQQHGSSPFTFGPGTKVDIK")
2190
>>> reported_result("75110_04P06A (antibody, IgG1, V domains shown, Tested as non-clonal AlivaMab Mouse Kappa hybridoma supernatant: human variable domains and human kappa, mouse Fc) VH: EVQLVESGGGLVQPGGSLRLSCAASGFTFSNYDMHWVRQATGKGLEWVSTIGTAGDTYYPGSVKGRFTISRENAKNSLYLQMNSLRAGDTAVYYCARGGDYYYGMDVWGQGTTVTVSS VL: EIVLTQSPDTLSLSPGERATLSCRASQSLSSVYLAWYQQKPGQAPRLLIYGASSRATGIPDRFSGSGSGTDFTLTINRLEPEDFVVYYCQQYGSSPFTFGPGTKVDIK")
2190

--- query ---
Prompt: For 75110_04F22A (antibody, V domains shown, Tested as non-clonal AlivaMab Mouse Kappa hybridoma supernatant: human variable domains and human kappa, mouse Fc) VH: EVQLVESGGGLVQPGGSLRLSCAASGFTFSSYDIHWVRQATGKGLEWVSTIGTAGDTYYPGSVKGRFTISRENAKNSLYLQMNSLRAGDTAVYYCARGGYYYYGMDVWGQGTTVTVSS VL: EIVLTQSPGTLSLSPGERATLSCRASQSVYSSYLAWYQQKPGQAPRLLIYGASSRATGIPDRFSGSGSGTDFTLTISRLEPEDFAVYYCQQFGTSPFTFGPGTKVDIK , what is its reported SKW3 FACS Binning RPA-T4-PE-Dazzle 594?
Response: 2290
